experimentalTarget: T1, human TNFR2 (Homo sapiens, UniProt P20333 23-461)
T1 construct: also called hTNFR2; TNFRSF1B
T1 sequence: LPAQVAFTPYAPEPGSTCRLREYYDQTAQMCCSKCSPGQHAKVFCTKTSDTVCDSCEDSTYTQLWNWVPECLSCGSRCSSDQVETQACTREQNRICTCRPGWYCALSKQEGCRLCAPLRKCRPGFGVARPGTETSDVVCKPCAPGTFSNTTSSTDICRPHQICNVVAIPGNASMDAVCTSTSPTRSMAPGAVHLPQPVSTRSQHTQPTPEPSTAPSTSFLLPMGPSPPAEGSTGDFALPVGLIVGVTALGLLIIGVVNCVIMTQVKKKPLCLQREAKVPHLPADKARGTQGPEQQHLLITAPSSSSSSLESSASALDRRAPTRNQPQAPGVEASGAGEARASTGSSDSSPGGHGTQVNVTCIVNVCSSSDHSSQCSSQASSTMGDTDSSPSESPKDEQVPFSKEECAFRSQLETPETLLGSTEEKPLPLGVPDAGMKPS
experimentSummary: binding to cells stably overexpressing human TNFR2, serial dilutions, flow cytometry or imaging
measuredMetric: EC50 (nM)
Write the number in nM without appending the unit.

Examples with their reported EC50 follow.
R2_mAb-3 (antibody, V domains shown, also called R2-3) VH: QVQLQESGPGLVKPSETLSLTCTVSGGSISSYYWSWIRQAPGKGLEWIGYIYYSGSTNYNPSLKSRVTISVDTSKNQFSLKLSSVTAADTAVYYCARDDGSSDYGMDVWGQGTTVTVSS VL: AIQLTQSPSSLSASVGDRVTITCRASQGISSALAWYQQKPGKAPKLLIYDASSLESGVPSRFTGSGTDFTLTISSLQPEDFATYYCQQFNNYMYTFGQGTKLEIK : 0.38
R2_mAb-5 (antibody, V domains shown, also called R2-5) VH: QVQLVQSGAEVKKPGASVTVSCKASGYTFSTYGIIWVRQAPGQGLEWMGWISAFNGNANSAQKLQDRVTMTTDTSTSTAYMELRSLRSDDTAVYYCARGEDFFDYWGQGTLVTVSS VL: DIVMTQTPLSSPVTLGQPASISCRSSQSLVHSDGNTYLSWLQQRPGQPPRLLIYKVSSRFSGVPDRFSGSGAGTDFTLKISRVEAEDVGVYYCTQSTQFPFTFGRGTKLEIK : 0.1
R2_mAb-6 (antibody, V domains shown, also called R2-6) VH: QVQLVQSGAEVKKPGASVKVSCKASGYTFLSYGLSWVRQAPGQGLEWMGWINAYNGNTNYAQNLQDRVTMTTDTSTSTAYMELRSLRSDDMAVYYCARWDILTAYYSSDAFDIWGQGTMVTVSS VL: DIVMTQTPLSSPVTLGQPASISCRSSQSLVHSDGNTYLNWLQQRPGQPPRLLIYKVSNRFSGVPDRFSGSGAGTDFTLKISRVEAEDVGVYYCTQTTQFPITFGQGTRLEIK : 0.14

Now turn to the next binder.
Inquiry: Look at this binder and give its reported EC50. R2_mAb-1 (antibody, V domains shown, also called R2-1) VH: QVQLVESGGGVVQPGRSLRLSCAASGFTFSSYGMHWVRQAPGKGLEWVAVIWFDEDNKDYADSVKGRFTISRDNSKNTLYLQMSSLRAEDTAVYYCARDNDILTGYYYYYGMDVWGQGTTVTVSS VL: DIQLTQSPSFLSASVGDRVTITCRASQDISSYLAWYQQKPGKAPKLLIYAASTLQSGVPSRFSGSGSGTEFTLTISSLQPEDFATYYCQQLNSYPPTFGQGTKVEIK
Reply text: 0.1
